src = BindingDB's records for doi:10.1016/j.bioorg.2017.05.009

Lab note: IC50 readings collected with UniProt P38158 for the following molecules.
Sequence (P38158 whole entry): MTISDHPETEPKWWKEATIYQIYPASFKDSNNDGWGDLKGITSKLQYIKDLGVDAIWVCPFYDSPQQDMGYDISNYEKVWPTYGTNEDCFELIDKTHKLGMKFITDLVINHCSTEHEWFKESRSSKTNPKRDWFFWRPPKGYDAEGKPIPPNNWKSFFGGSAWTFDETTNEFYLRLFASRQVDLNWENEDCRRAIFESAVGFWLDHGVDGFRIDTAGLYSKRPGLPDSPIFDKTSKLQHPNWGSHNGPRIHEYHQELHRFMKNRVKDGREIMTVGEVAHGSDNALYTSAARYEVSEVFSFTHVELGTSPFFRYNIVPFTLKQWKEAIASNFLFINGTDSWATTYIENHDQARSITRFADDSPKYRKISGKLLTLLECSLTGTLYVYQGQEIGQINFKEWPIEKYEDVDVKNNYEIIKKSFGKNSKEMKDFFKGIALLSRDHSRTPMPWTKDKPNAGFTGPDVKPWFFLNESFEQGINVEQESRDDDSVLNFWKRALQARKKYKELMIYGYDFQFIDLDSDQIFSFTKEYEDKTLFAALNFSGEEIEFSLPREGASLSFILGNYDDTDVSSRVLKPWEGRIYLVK
metric.name: IC50 (µM)

COc1ccc(-n2c(-c3cn(-c4ccccc4)nc3C3=CC4C=CC=CC4OC3=O)nc(-c3ccccc3)c2-c2ccccc2)cc1 (stereo unspecified)	25.4
Cc1cc(C)cc(-n2c(-c3cn(-c4ccccc4)nc3C3=CC4C=CC=CC4OC3=O)nc(-c3ccccc3)c2-c2ccccc2)c1 (stereo unspecified)	46.4
O=C1OC2C=CC=CC2C=C1c1nn(-c2ccccc2)cc1-c1nc(-c2ccccc2)c(-c2ccccc2)n1-c1ccc(Cl)cc1 (stereo unspecified)	12.7
O=c1oc2ccc(Br)cc2cc1-c1nn(-c2ccccc2)cc1-c1nc(-c2ccccc2)c(-c2ccccc2)n1-c1ccc(Br)cc1	5.21

1. Cc1cc(C)cc(-n2c(-c3cn(-c4ccccc4)nc3C3=CC4C=C(Br)C=CC4OC3=O)nc(-c3ccccc3)c2-c2ccccc2)c1 (stereo unspecified)
2. CCCn1c(-c2cn(-c3ccccc3)nc2C2=CC3C=CC=CC3OC2=O)nc(-c2ccccc2)c1-c1ccccc1 (stereo unspecified)
[ask] Which numeric IC50 is bigger, that of 1 or that of 2 ? Please respond with the label that marks your chosen entry.
[reply] 2
(2: 44.8 µM, 1: 5.64 µM)
